Target: human CA-IX (Homo sapiens)
Construct: purchased Acro CA9-H82E3
Test: Surface Plasmon Resonance (SPR) binding kinetics to recombinant human CA-IX (Biacore 8K, single-cycle kinetics, 1:1 binding model)
Conditions: read-out: CAIX KD; Chelated Metal: Lu-175; SPR, 25° C., pH 7.4
Method: G1. Surface Plasmon Resonance Assay Conditions for hCA-IX and hCA-XII Surface Plasmon Resonance (SPR) experiments were conducted on a Biacore 8K instrument (Cytiva, Marlborough, MA) to determine the binding kinetics of the compound to recombinant human CA-IX (Acro, CA9-H82E3) and CA-XII (Creative BioMart, CA12-261H) proteins. […]
The entries below are paired with their reported Kd.

[
  {
    "cpd_smiles": "NC(=O)C1(C(=O)NCC(=O)N2CCN(C(=O)CN3CCN(CC(=O)O)CCN(CC(=O)O)CCN(CC(=O)O)CC3)C[C@H]2C(=O)NCCn2cc(C34CC(C(=O)Nc5nnc(S(N)(=O)=O)s5)(C3)C4)nn2)CCN(C(=O)c2ccc(C3CC3)nn2)CC1.[Lu+3]",
    "Kd": "2.5 to 10 nM"
  }
]

Then this molecule:
Qu. Hi! What's the reported Kd for CC(CCCC(=O)N1CCC(C(N)=O)(C(=O)NCC(=O)NC2(C(=O)NCCn3nnc(C45CC(C(=O)Nc6nnc(S(N)(=O)=O)s6)(C4)C5)c3C(=O)O)CCN(C(=O)CN3CCN(CC(=O)O)CCN(CC(=O)O)CCN(CC(=O)O)CC3)CC2)CC1)(c1ccc(O)cc1)c1ccc(O)cc1.[Lu+3] on human CA-IX (Homo sapiens)?
Ans. < 1 nM
